The reported numbers originate from a melting point compilation (Tetko et al.).

measure: melting point

Ask | For the compound `Cc1ccc(-c2nn(-c3ccc(F)cc3)cc2C(=O)O)cc1` , what melting point is on record?
Reply | 212 to 214 °C

Ask | Item: `N#Cc1c(Cl)cccc1Oc1cccc(C(=O)O)c1`
Reply | 239 to 241 °C

Ask | How about this compound: `Cc1cc(C(=O)O)c(C(=O)O)s1`
Reply | 210 to 212 °C

====

measure: melting point

Known results for molecules:
INSERT INTO measurements (molecule, value_reported) VALUES
  ('Cc1ccc(Cn2nc(C)c(/C=C/C(=O)O)c2C)cc1', '161 to 163 °C'),
  ('CC(=O)c1ccc(NC(=O)CI)cc1', '139 to 141 °C'),
  ('Nc1ncn(Cc2cccnc2)n1', '112 to 114 °C'),
  ('NS(=O)(=O)CCCC(F)(F)F', '66 to 68 °C'),
  ('O=C(O)Cc1csc(-c2ccc3c(c2)OCO3)n1', '175 to 177 °C');

Ask | Endpoint output: melting point of `CCN1N=C(C(=O)O)CCC1=O` . Value?
Reply | 147 to 149 °C

Ask | What would you report for `C=C(C)CNC(=S)NN` ?
Reply | 86 to 88 °C

Ask | Proceed to OCC1Cc2cc(Br)ccc2O1 (centres undefined)
Reply | 63 to 65 °C

Ask | // repeat for `Cc1cc(C(=O)O)cc(S(N)(=O)=O)c1C` and report
Reply | 266 to 268 °C

====

// values below are reported melting point

Example cases with answers are listed next.
INSERT INTO assay_data (compound, measure, value_reported) VALUES
  ('CCN(CC)Cc1ccc(O)c2ncccc12', 'melting point', '60 to 62 °C'),
  ('CN(c1ccc(O)cc1)S(=O)(=O)c1ccccc1F', 'melting point', '100 to 102 °C'),
  ('CCSc1cccc(C(=O)O)c1', 'melting point', '95 to 97 °C');

Ask | Would you kindly share the measured melting point for `NC(=O)C(N)C(N)=O` ?
Reply | 171 to 173 °C

Ask | What do you get for `O=C(O)CCC(=O)NCC(=O)c1ccccc1` ?
Reply | 143 to 145 °C

Ask | Could you do the same for `COc1ccc(-c2noc(CCCC(=O)O)n2)cc1` , please?
Reply | 109 to 111 °C

Ask | And what about the compound `Cc1nn(-c2cncc3nnnn23)c(C)c1CC(=O)O` ?
Reply | 173 to 175 °C

Ask | Same thing, different compound: O=C(NC(Cc1c[nH]cn1)C(=O)O)C1CCCCC1 (configuration not stated)
Reply | 127 to 129 °C

Ask | Lookup `N#Cc1nccnc1Oc1ccc(N)cc1`
Reply | 170 to 172 °C

====

Consider the following compounds and their measured melting point readings.

INSERT INTO assay_data (compound, value_reported) VALUES
  ('Nc1cc(F)ccc1N1C(=O)C2CCCCC2C1=O (centres undefined)', '174 to 176 °C'),
  ('CCOc1ccc(-c2nc(N)sc2C)cc1', '98 to 100 °C'),
  ('CN(C)S(=O)(=O)c1cn[nH]c1', '132 to 134 °C');

Ask | Fill blank: measured melting point of the compound `Sc1nnc(C2CC2)n1Cc1ccccc1` is ____.
Reply | 176 to 178 °C

Ask | Input `O=C(O)CNc1nccs1`
Reply | 261 to 263 °C

Ask | And what about the compound `CCC(=O)c1ccc(Cl)s1` ?
Reply | 47 to 49 °C

Ask | Another compound to look at: `Cc1c(C(=O)O)ccc2cnc(C3CC3)n12`
Reply | 204 to 206 °C

Ask | Next up: CC(C)C(Br)C(=O)Nc1ccccc1Cl (centres undefined)
Reply | 114 to 116 °C

Ask | # repeat for `O=C(CCl)Nc1ccc2c(c1)OCCCO2`
Reply | 108 to 110 °C

Ask | Next: `Cn1cccc(N)c1=O`
Reply | 112 to 114 °C

Ask | How about this compound: `Cc1ccc(C(=O)NCC(=O)O)cc1C`
Reply | 160 to 162 °C

Ask | Try the compound `N=C(N)Nc1nc2ccccc2o1`
Reply | 179 to 181 °C

Ask | How about this compound: `Cc1cnc2ccccc2c1N`
Reply | 139 to 141 °C

Ask | Also CC(Cl)C(=O)Nc1cccc([N+](=O)[O-])c1 (centres undefined) , if possible.
Reply | 115 to 117 °C

Ask | Same thing, different compound: `COC1(C(=O)O)CCN(C(=O)OC(C)(C)C)CC1`
Reply | 96 to 98 °C

Ask | Another compound: `O=C(CCl)Nc1cccnc1`
Reply | 179 to 181 °C

Ask | Quick one: `CS(=O)(=O)Nc1ccccc1C#N`
Reply | 99 to 101 °C

Ask | Now this one: `Cc1cc(C)cc(-c2cc(N)[nH]n2)c1`
Reply | 75 to 77 °C

Ask | What do you get for `NC(=O)CCCCCl` ?
Reply | 76 to 78 °C

====

measure: melting point

These solved cases illustrate the format of a correct answer.
INSERT INTO results (molecule, measure, value_reported) VALUES
  ('O=C(O)CCCNc1ncccn1', 'melting point', '127 to 129 °C'),
  ('Cc1ccc([N+](=O)[O-])c(OCCC(=O)O)c1', 'melting point', '134 to 136 °C'),
  ('O=C(CC(=O)Nc1ccc(F)cc1)Nc1ccc(F)cc1', 'melting point', '217 to 219 °C'),
  ('CC(NS(=O)(=O)Cc1ccc(CN)cc1)C(N)=O (stereo not drawn)', 'melting point', '140 to 142 °C'),
  ('Cc1cc(C(=O)O)nn1-c1cccc(Cl)c1', 'melting point', '190 to 192 °C'),
  ('NNc1ccc(-c2ccccc2)nn1', 'melting point', '144 to 146 °C'),
  ('CC(C)(C)OC(=O)N1CCCC(COCC(=O)O)C1 (stereo not drawn)', 'melting point', '74 to 76 °C'),
  ('CN(C)S(=O)(=O)c1ccc2nc(Cl)c(Cl)nc2c1', 'melting point', '139 to 141 °C'),
  ('O=C(CCl)NC(=O)c1ccccc1', 'melting point', '157 to 159 °C'),
  ('CS(=O)(=O)Cc1cc(F)ccc1N', 'melting point', '126 to 128 °C');

Ask | Which melting point is reported for this molecule? OC1CC(c2ccc(Br)cc2)C1 (stereo not drawn)
Reply | 59 to 61 °C

Ask | # iterate: `Brc1ncn2ccccc12`
Reply | 77 to 79 °C

Ask | Do the same for `O=[N+]([O-])c1cc(S(=O)(=O)NCCN2CCOCC2)ccc1Cl` please
Reply | 119 to 121 °C

====

Reported melting point is given for each of the following compounds.

INSERT INTO assay_data (compound, value_reported) VALUES
  ('O=Cc1coc(-c2ccccc2)n1', '90 to 92 °C'),
  ('Cc1ccc(-c2nn(Cc3ccccc3)cc2C(=O)O)cc1C', '155 to 157 °C'),
  ('CN1CCCC1C(=O)O (centres undefined)', '111 to 113 °C');

Ask | What value of melting point has been recorded for this entry: `CN(C)c1ccc(C(N)=NO)cc1`
Reply | 169 to 171 °C

Ask | Another compound to look at: `NCCNS(=O)(=O)c1ccccc1`
Reply | 74 to 76 °C

Ask | Input `O=C(O)c1cn(-c2ccccc2)nc1-c1ccccc1`
Reply | 202 to 204 °C

Ask | Again, but for O=C(O)C1CCN(c2cccc(Cl)c2)C1=O (centres undefined)
Reply | 113 to 115 °C

Ask | Same question, `CCN(CC)S(=O)(=O)c1ccc(N2CCOCC2)c(C(=O)O)c1` this time
Reply | 149 to 151 °C

Ask | Could you do the same for `COc1ccc2c(c1)c(C(=O)O)c(C)n2C1CC1` , please?
Reply | 199 to 201 °C

Ask | And `N#CCc1ccc(OCC(=O)O)cc1` ?
Reply | 148 to 150 °C

Ask | # repeat for `CCN(CC)S(=O)(=O)c1ccc(O)c(C(=O)O)c1`
Reply | 129 to 131 °C

Ask | Follow-up entry: `N#Cc1cc(C#N)c(S)nc1N`
Reply | 280 to 282 °C

Ask | Can you handle `NC(=O)c1csc(Br)c1` next?
Reply | 142 to 144 °C

Ask | Also need CCC1(c2cccc(Cl)c2)NC(=O)NC1=O (centres undefined) , thanks.
Reply | 159 to 161 °C

Ask | Request: `CCOC(=O)c1ccn(-c2ccccc2N)n1`
Reply | 79 to 81 °C

====

Recorded melting point by entry

Ask | Could you tell me which melting point is on file for `Cc1cc(-n2nc(C)cc2N)nc(C)n1` ?
Reply | 104 to 106 °C

Ask | Now this one: `Cc1cc(N)n(-c2ccc(F)cc2)n1`
Reply | 109 to 111 °C

Ask | Likewise for `O=C(O)CNC(=O)c1ccc(Cl)c([N+](=O)[O-])c1` ?
Reply | 190 to 192 °C

Ask | Same for `Nc1ccccc1-n1ccc(C(=O)O)n1`
Reply | 136 to 138 °C

Ask | Query O=C1OC(O)C(Br)=C1Br (centres undefined) next
Reply | 122 to 124 °C

Ask | Now the compound `COc1ccc(Cl)cc1CC#N`
Reply | 51 to 55 °C

Ask | Continue with `O=C(O)c1ccccc1NS(=O)(=O)c1ccc(Cl)c(Cl)c1`
Reply | 143 to 147 °C

Ask | Another compound to look at: `O=C(O)CCn1c(=O)oc2cc(S(=O)(=O)N3CCCC3)ccc21`
Reply | 190 to 192 °C

Ask | Here is the next compound: `O=C(CCl)Nc1ccc(F)cc1Cl`
Reply | 76 to 78 °C

Ask | Field entry: `CCOC(=O)C(N)=NO`
Reply | 94 to 96 °C

Ask | Subsequent entry: `Cc1nn(-c2ccccc2)cc1C(=O)O`
Reply | 192 to 194 °C

Ask | Next: `Cc1cc(=O)[nH]c(-c2cccc(O)c2)n1`
Reply | 213 to 215 °C

Ask | Can you check `NNC(=O)CC1CC1` next?
Reply | 89 to 91 °C

Ask | Likewise for `NC(=O)c1ccc(OCCC(=O)O)cc1` ?
Reply | 214 to 216 °C
